Reported λabs values follow for various compounds
# assay summary: Absorption maximum of the dye
# Assay type: physicochemical
# condition summary: solvent PBS pH 7.4
Marks after values point to notes of the source that are not given here.

// known answers, use as guide
Cc1cc(=O)n(CC(=O)O)c2cc(Nc3nc(NCCS(=O)(=O)O)nc(NCCS(=O)(=O)O)n3)ccc12 [Compound 115] ... 335^b nm
Cc1cc(=O)n(CC(=O)O)c2cc(Nc3nc(Cl)nc(NCCS(=O)(=O)O)n3)ccc12 [Compound 114] ... 338^b nm
C[Si]1(C)c2cc3c(cc2C(NCCCC(=O)O)=c2cc4c(cc21)=[N+](Cc1ccc(S(=O)(=O)O)cc1S(=O)(=O)O)CCC4)CCCN3Cc1ccc(S(=O)(=O)O)cc1S(=O)(=O)O [Compound 95] ... 489^b nm
CN(C)c1ccc2c(c1)C(C)(C)c1cc3c(cc1=C2c1c(F)c(F)c(SCC(=O)O)c(F)c1F)CCC[N+]=3Cc1ccc(S(=O)(=O)O)cc1S(=O)(=O)O [Compound 38] ... 646^b nm

Any idea what λabs was measured for CC1(C)c2c(cc3c4c2CCCN4CCC3)C(C#N)=c2cc3c(cc21)=[N+](Cc1ccc(S(=O)(=O)O)cc1S(=O)(=O)O)CCC3 [Compound 80] ?
739^b nm

---

# assay summary: Absorption maximum of the dye
# Type: physicochemical
# condition summary: solvent PBS pH 7.4
Marks after values point to notes of the source that are not given here.
Reported λabs values follow for various compounds

Cc1cc(=O)n(CC(=O)O)c2cc(NCS(=O)(=O)O)ccc12 ... 350^b nm
CC1=CC(C)(C)N(Cc2ccc(S(=O)(=O)O)cc2)c2cc3c(cc21)C(c1n(C)cc[n+]1CCCCS(=O)(=O)O)=c1cc2c(cc1C3(C)C)=[N+](CCCC(=O)O)C(C)(C)C=C2C ... 742^b nm
CN(CCCC(=O)O)C(=O)c1ccccc1C1=c2cc3c(cc2[Si](C)(C)c2cc4c(cc21)C(CS(=O)(=O)O)=CC(C)(C)N4Cc1ccc(S(=O)(=O)O)cc1S(=O)(=O)O)=[N+](Cc1ccc(S(=O)(=O)O)cc1S(=O)(=O)O)C(C)(C)C=C3CS(=O)(=O)O ... 722^b nm
Cn1cc[n+](CCCC(=O)O)c1C1=c2cc3c(cc2[Si](C)(C)c2cc4c(cc21)C(CS(=O)(=O)O)CC(C)(C)N4Cc1ccc(S(=O)(=O)O)cc1S(=O)(=O)O)=[N+](Cc1ccc(S(=O)(=O)O)cc1S(=O)(=O)O)C(C)(C)CC3CS(=O)(=O)O (stereo not shown) ... 752^b nm

Any idea what λabs was measured for CC1(C)c2cc(Nc3ccc(S(=O)(=O)O)cc3)ccc2C(c2c(F)c(F)c(SCC(=O)O)c(F)c2F)=c2cc3c(cc21)=[N+](Cc1ccc(S(=O)(=O)O)cc1S(=O)(=O)O)CCC3 ?
648^b nm

Next: CN(CCCC(=O)O)C(=O)c1ccccc1-c1c2cc/c(=N/Cc3cc(S(=O)(=O)O)c4cc(S(=O)(=O)O)cc(S(=O)(=O)O)c4c3)c(S(=O)(=O)O)c-2oc2c(S(=O)(=O)O)c(NCc3cc(S(=O)(=O)O)c4cc(S(=O)(=O)O)cc(S(=O)(=O)O)c4c3)ccc12
530^b nm

Next: CC1(C)c2c(cc3c4c2CCCN4CCC3)C(c2c(F)c(F)c(SCC(=O)O)c(F)c2F)=c2cc3c(cc21)=[N+](Cc1ccc(S(=O)(=O)O)cc1S(=O)(=O)O)CCC3
656^b nm

Next: CN(Cc1ccc(S(=O)(=O)O)cc1S(=O)(=O)O)c1ccc2c(c1)C(C)(C)C1=C/C(=[N+](/C)Cc3ccc(S(=O)(=O)O)cc3S(=O)(=O)O)C=CC1=C2c1c(F)c(F)c(F)c(F)c1F
646^b nm

Next: CN(Cc1ccc(S(=O)(=O)O)cc1S(=O)(=O)O)c1ccc2c(c1)C(C)(C)C1=C/C(=[N+](/C)Cc3ccc(S(=O)(=O)O)cc3S(=O)(=O)O)C=CC1=C2c1c(F)c(F)c(SCC(=O)O)c(F)c1F
645^b nm

Next: CC1(C)c2cc3c(cc2C(c2c(F)c(F)c(SCCS(=O)(=O)O)c(F)c2F)=c2cc4c(cc21)=[N+](Cc1ccc(S(=O)(=O)O)cc1S(=O)(=O)O)C(C)(C)C=C4CS(=O)(=O)O)CCCN3CCCC(=O)O
682^b nm

Next: C[Si]1(C)c2cc3c(cc2C=c2cc4c(cc21)=[N+](Cc1ccc(S(=O)(=O)O)cc1S(=O)(=O)O)CCC4)CCCN3CCCC(=O)O
670^b nm
